measured.target: Receptor-interacting serine/threonine-protein kinase 1 (Homo sapiens, UniProt Q13546)
Sequence (Q13546 whole entry, the tested form may be a part): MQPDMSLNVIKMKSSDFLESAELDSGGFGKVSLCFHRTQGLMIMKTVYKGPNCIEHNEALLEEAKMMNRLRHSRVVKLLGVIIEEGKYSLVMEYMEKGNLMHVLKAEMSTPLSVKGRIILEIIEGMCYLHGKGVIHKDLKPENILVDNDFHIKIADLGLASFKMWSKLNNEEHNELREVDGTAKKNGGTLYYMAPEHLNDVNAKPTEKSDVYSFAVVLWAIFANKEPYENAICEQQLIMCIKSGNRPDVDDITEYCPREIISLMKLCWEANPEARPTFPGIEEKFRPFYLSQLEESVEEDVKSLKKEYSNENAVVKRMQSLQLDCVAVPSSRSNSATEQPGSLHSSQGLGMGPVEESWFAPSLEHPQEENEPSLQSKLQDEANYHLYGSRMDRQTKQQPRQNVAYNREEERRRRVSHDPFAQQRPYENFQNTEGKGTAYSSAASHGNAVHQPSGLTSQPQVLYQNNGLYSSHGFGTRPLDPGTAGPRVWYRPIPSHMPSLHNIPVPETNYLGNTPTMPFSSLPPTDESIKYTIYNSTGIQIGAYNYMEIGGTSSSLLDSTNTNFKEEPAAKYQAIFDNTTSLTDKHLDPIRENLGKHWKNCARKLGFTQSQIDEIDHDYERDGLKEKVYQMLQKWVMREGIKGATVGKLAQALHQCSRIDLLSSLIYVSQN
run.description: Displacement of (14-(2-{[3-({2-{[4-(cyanomethyl)phenyl]amino}-6-[(5-cyclopropyl-1H-pyrazol-3-yl)-amino]-4-pyrimidinyl}amino)propyl]amino}-2-oxoethyl)-16,16,18,18-tetramethyl-6,7,7a,8a,9,10,16,18-octahydrobenzo[2'',3'']indolizino-[8'',7'':5',6']pyrano[3',2':3,4]pyrido[1,2-a]indol-5-ium-2-sulfonate from human RIP1 (1 to 375 residues) expressed in baculovirus infected insect cells measured for 50 min
reported.endpoint: IC50 (µM)
Numbers only, in µM.

Recorded IC50, per entry:
INSERT INTO assay_data (smiles_notation, units, result_value) VALUES
  ('CN1C(=O)[C@@H](NC(=O)c2c[nH]c(Cc3ccccc3)n2)COc2ccccc21', 'µM', 1.26),
  ('O=C(N[C@H]1CCOc2ccccc2NC1=O)c1cc(Cc2ccccc2)on1', 'µM', 0.2),
  ('CCN1C(=O)[C@@H](NC(=O)c2cc(Cc3ccccc3)on2)COc2ccccc21', 'µM', 3.16),
  ('CC(C)Cc1cc(C(=O)N[C@H]2COc3ccccc3N(C)C2=O)no1', 'µM', 1.6),
  ('CCCCCc1cc(C(=O)N[C@H]2COc3ccccc3N(C)C2=O)no1', 'µM', 0.1);

// switching to the query compound
Would you kindly share the measured IC50 for CN1C(=O)[C@@H](NC(=O)c2coc(Cc3ccccc3)n2)COc2ccccc21 ? 0.794

====

run.description: Displacement of (14-(2-{[3-({2-{[4-(cyanomethyl)phenyl]amino}-6-[(5-cyclopropyl-1H-pyrazol-3-yl)-amino]-4-pyrimidinyl}amino)propyl]amino}-2-oxoethyl)-16,16,18,18-tetramethyl-6,7,7a,8a,9,10,16,18-octahydrobenzo[2'',3'']indolizino-[8'',7'':5',6']pyrano[3',2':3,4]pyrido[1,2-a]indol-5-ium-2-sulfonate from monkey RIP1 (1 to 379 residues) expressed in baculovirus infected insect cells measured for 50 mins by fluorescence polarization assay
Design: species or system Macaca mulatta
reported.endpoint: IC50 (nM)
Answers are plain numbers, in nM.

Would you kindly share the measured IC50 for CN1C(=O)[C@@H](NC(=O)c2n[nH]c(Cc3ccccc3)n2)COc2ccccc21 ? 20

====

run.description: Tmax in rat at 2.1 mg/kg, po
Assay type: ADME, organism-based
condition.context: in vivo
reported.endpoint: Tmax (min)
Numbers only, in min.

Would you kindly share the measured Tmax for CN1C(=O)[C@@H](NC(=O)c2nnc(Cc3ccccc3)[nH]2)COc2ccccc21 ? 15

====

measured.target: Cytochrome P450 2C9 (Homo sapiens)
Sequence (P11712 whole entry): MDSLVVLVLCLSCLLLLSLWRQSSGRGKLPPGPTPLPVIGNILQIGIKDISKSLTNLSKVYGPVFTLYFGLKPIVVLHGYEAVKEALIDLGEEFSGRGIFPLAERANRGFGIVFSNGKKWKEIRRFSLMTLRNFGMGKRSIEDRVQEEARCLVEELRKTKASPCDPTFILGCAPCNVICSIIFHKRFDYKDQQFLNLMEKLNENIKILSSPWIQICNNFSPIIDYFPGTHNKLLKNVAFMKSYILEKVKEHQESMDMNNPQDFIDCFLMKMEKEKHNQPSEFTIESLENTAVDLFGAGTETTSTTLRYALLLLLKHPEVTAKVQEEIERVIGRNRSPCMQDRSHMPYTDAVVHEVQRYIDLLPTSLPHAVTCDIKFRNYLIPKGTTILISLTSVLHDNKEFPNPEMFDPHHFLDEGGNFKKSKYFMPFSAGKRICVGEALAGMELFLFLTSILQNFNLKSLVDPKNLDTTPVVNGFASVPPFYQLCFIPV
run.description: Inhibition of recombinant human CYP2C9
reported.endpoint: pIC50
Give bare numbers, as −log10 of the molar value.

Would you kindly share the measured pIC50 for CN1C(=O)[C@@H](NC(=O)c2nnc(Cc3ccccc3)[nH]2)COc2ccccc21 [GSK2982772] ? 4.60

====

run.description: Lipophilicity, log D of the compound at pH 7.4 by RP-HPLC method
Format: physicochemical
condition.context: buffer
Assign chromatographic logD to each entry below.
One number for each entry.

INSERT INTO assay_data (smiles_notation, reported_endpoint, result_value) VALUES
  ('CN1C(=O)[C@@H](NC(=O)c2cnn(Cc3ccccc3)c2)COc2ccccc21', 'chromatographic logD', 4),
  ('CN1C(=O)[C@@H](NC(=O)c2cc(Cc3ccccc3)on2)CNc2ccccc21', 'chromatographic logD', 5),
  ('CN1C(=O)[C@@H](NC(=O)c2coc(Cc3ccccc3)n2)COc2ccccc21', 'chromatographic logD', 5.4),
  ('CN1C(=O)[C@@H](NC(=O)c2cc(Cc3ccccc3)on2)COc2ccc(-c3n[nH]c(=O)o3)cc21', 'chromatographic logD', 4.4),
  ('CN1C(=O)[C@@H](NC(=O)c2cc(Cc3ccccc3)on2)CSc2ccccc21', 'chromatographic logD', 6.2),
  ('CN1C(=O)[C@@H](NC(=O)c2ncc(Cc3ccccc3)o2)COc2ccccc21', 'chromatographic logD', 5.6),
  ('CN1C(=O)[C@@H](NC(=O)c2cc(Cc3ccccc3)on2)COc2ccccc21', 'chromatographic logD', 5.9),
  ('CN1C(=O)[C@@H](NC(=O)c2cc(Cc3ccccc3)ccn2)COc2ccccc21', 'chromatographic logD', 6.4),
  ('CN1C(=O)[C@@H](NC(=O)c2c[nH]c(Cc3ccccc3)n2)COc2ccccc21', 'chromatographic logD', 3.8),
  ('CN1C(=O)[C@@H](NC(=O)c2cccc(Cc3ccccc3)c2)COc2ccccc21', 'chromatographic logD', 6.3);

Would you kindly share the measured chromatographic logD for CN1C(=O)[C@@H](NC(=O)c2nnc(Cc3ccccc3)[nH]2)COc2ccccc21 ? 3.8
